Value source: paper PMC3388911

- Measurement target: AtOAS-TL (A. thaliana O-acetylserine thiol-lyase) (Arabidopsis thaliana)
- Sequence (P47998 whole entry): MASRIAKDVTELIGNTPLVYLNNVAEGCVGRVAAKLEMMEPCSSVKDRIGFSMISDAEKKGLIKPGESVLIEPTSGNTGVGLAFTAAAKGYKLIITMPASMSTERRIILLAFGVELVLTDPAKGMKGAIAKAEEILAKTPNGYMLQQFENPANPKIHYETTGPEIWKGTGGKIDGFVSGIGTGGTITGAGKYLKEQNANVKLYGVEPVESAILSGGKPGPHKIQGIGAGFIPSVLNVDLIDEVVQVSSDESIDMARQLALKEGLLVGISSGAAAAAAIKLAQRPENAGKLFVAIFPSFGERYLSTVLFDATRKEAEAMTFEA
- Assay explanation: biochemical
Where no end group is shown, it is not given here.
Quantity name: pIC50
Reminder that pIC50 is minus the log10 of a molar concentration.

// pIC50 lookup, key: EGDGSGI [EGDGSGI]
3.62

====

- Measurement target: LmCS (L. major cysteine synthase) (Leishmania major, UniProt Q4Q159)
- Sequence (Q4Q159 1-333): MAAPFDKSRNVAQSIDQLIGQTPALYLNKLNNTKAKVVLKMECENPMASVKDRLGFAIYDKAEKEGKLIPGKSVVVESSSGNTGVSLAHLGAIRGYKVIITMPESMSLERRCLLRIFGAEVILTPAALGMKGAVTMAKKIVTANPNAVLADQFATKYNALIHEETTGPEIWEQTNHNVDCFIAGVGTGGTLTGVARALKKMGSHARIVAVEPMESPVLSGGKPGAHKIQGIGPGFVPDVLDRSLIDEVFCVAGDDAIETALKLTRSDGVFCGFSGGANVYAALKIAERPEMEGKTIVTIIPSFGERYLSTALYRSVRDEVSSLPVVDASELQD
- Assay explanation: biochemical
- Experimental conditions: 3 mM OAS, 2 mM sodium sulfide, pH 7.8, room temperature; values with ± are mean ± SD of three determinations, others single IC50 curve; read-out: LmCS IC50
Quantity name: IC50 (µM)
Quick reminder: number only, in µM, skip the unit.

// IC50 lookup, key: CC[C@H](C)[C@H](NC(=O)Cc1c[nH]c2ccccc12)C(=O)O [N-3-Indolylacetyl-L-isoleucine]
260

====

- Measurement target: LmCS (L. major cysteine synthase) (Leishmania major, UniProt Q4Q159)
- Assay explanation: biochemical
Where a SMILES comes first, the peptide text is derived from it. The star is where a group is joined. Cbz = O=C(OCc1ccccc1)*
Reported IC50 values for a set of compounds
Give the figure together with its unit, number first.

CC[C@H](C)[C@H](NC(=O)OCc1ccccc1)C(=O)O
320 µM

Please find the next compound below.
Lab note: need IC50 for CC[C@H](C)[C@H](NC(=O)[C@@H](NC(=O)OCc1ccccc1)C(C)C)C(=O)O [N-CBZ-L-valine-isoleucine] (Cbz-Val-Ile-OH) on LmCS (L. major cysteine synthase) (Leishmania major, UniProt Q4Q159), anyone have it?
1410 µM

====

- Measurement target: LmCS (L. major cysteine synthase) (Leishmania major, UniProt Q4Q159)
- Assay explanation: biochemical
- Experimental conditions: LmCS IC50, 3 mM OAS, 2 mM sodium sulfide
pIC50: −log10 of the molar value. Where a SMILES comes first, the peptide text is derived from it.
Quantity name: pIC50

// pIC50 lookup, key: CC[C@H](C)[C@H](NC(=O)CNC(=O)[C@H](CO)NC(=O)CN)C(=O)O [GSGI] (H-GSGI-OH)
~2.82
